- Assay Details: soluble on expression in E. coli; label from the status in PepcDB or PDB records
Attribute Measured: soluble on expression in E. coli

# example entries with known answers
{"columns": ["Sequence Code", "soluble on expression in E. coli"],
 "data": [
  ["MSLRASVAATKQKRFVAVDIETTGLNTESDQILSIGAVKHDGIEFYRLIKQDIDVPKQIVELTGITSEMLSKEGVPLQDALEELTDFVGNVPIVGYNFRFDSVFLNRDYRKCGMQELKNEIKDLLPVVKRREKFLDNYKLQTVLSNYGIENKVPHNAVSDARATKELAMKLIKNRILVIEGHHHHHH", "soluble"],
  ["PPAVSDIRVTRSSPSSLSLAWAVPRAPSGAVLDYEVKYHEKGAEGPSSVRFLKTSENRAELRGLKRGASYLVQVRARSEAGYGPFGQEHHSQTQLD", "soluble"],
  ["GSHMGIKNDLEIRLQKLQQQGNFKNYLEQYPTDASTAAYFLIEIYNDGNIGGRSVIDAGTGNGILACGSYLLGAESVTAFDIDPDAIETAKRNCGGVNFMVADVSEISGKYDTWIMNPPFGSVVKHSDRAFIDKAFETSMWIYSIGNAKARDFLRREFSARGDVFREEKVYITVPRIYRHHSYDRARIEAVIFGVRNHSF", "soluble"],
  ["GHMSRRYWQLDVFAERPLTGNGLAVFDDASALDDAAMQAWTRELRQFESIFLLPGDDPRAFRARIFTLEEELPFAGHPLLGAAALLHHLRGGDNEQHWTLHLASKSVALRSVRAGSGFYAEMDQGRAEFGATPDAGTCRWFAEAFSLSANDLSGHPPRVVSTGLPYLLLPVTAEALGRARQVNDLQEALDKLGAAFVYLLDVDGREGRTWDNLGLVEDVATGSAAGPVAAYLVEYGLAARGEPFVLHQGRFLERPSRLDVQVATDGSVRVGGHVQLLARAELLTSAGS", "soluble"],
  ["MGSDKIHHHHHHMNWDNARFFLALARTGTLRGAAAQLNVDQATVGRRIAALEDELSARLFLRTPALYVLTTAGEALLEPAETMERASLTIERRVMGLDEQLAGTVRIATTDSLGKRFVIPAIARLRRRHAGIDVVCVTSTEIANLTRREADLAIRTLRPESPDLIVRRLGHLETGIYASRHYLAERGEPVAGSAFDGHDLVMYQQPVMPTMWDALCGEPTSRGRVMFQTSSTMMLVEAALAGLGIAELPCFRAEAEPELVRLMARRCNHFDVWLVAHADLYKTARVQAVIEAVVEEFATAAPSTR", "not soluble"]
]}

Q) Bench note: what soluble on expression in E. coli did MMGMAVSTKLSIDEVNMLEKEDFVTKIGPIFEHSPWVAERAWAHRPFTSAENMYECMLEKVYEADKRLQLALLRAHPDLGTRLEISETSQSEQQRAGLSQLTEEEFAVFAELNKCYVDTFRFPFIMAVRGQTKNSIKEQMRKRLVNDEEQERKTALREVAKIAKFRLADLVVMGSRSLEHHHHHH show?
A) soluble

Q) Bench note: what soluble on expression in E. coli did TQGERRQAEQLAVQTARTISYMPPVKELIERKDGHAAQTQEVIEQMKEQTGAFAIYVLNEKGDIRSASGKSGLKKLERSREILFGGSHVSETKADGRRVIRGSAPIIKEQKGYSQVIGSVSVDFLQT show?
A) not soluble

###

- Assay Details: soluble on expression in E. coli; label from the status in PepcDB or PDB records
Attribute Measured: soluble on expression in E. coli

# example entries with known answers
{"columns": ["Sequence Code", "soluble on expression in E. coli"],
 "data": [
  ["MMDVSGVGFPSKVPWKKMSAEELENQYCPSRWVVRLGAEEALRTYSQIGIEATTRARATRKSLLHVPYGDGEGEKVDIYFPDESSEALPFFLFFHGGYWQSGSKDESAFMVHPLTAQGVAVVIVAYGIAPKGTLDHMVDQVTRSVAFVQKRYPSNKGIYLCGHSAGAHLAAMMLLADWTKHGVTPNLRGFFLVSGVFDLEPIVYTSQNVALQLTLEDAQRNNPQLKVAQAQPVDPTCRVLVVVGQFDSPEFHRQSWEFYQVLPVQTLCQGEWKASFEELHDVDHFEIVENLTQKDNVLTQIILKTIFQ", "soluble"],
  ["MSRVITHGQVKRVSETNAYAVPVESLTFPTLQPIGPLPPAGTTGVLITQRVPNTPYTPAPPPPPPVPANQTIIYEDGNNNNTIYMRVVSVVGPAKYNIEVL", "not soluble"],
  ["MQIWHMEPFPCGDRRLPHHVFPPKKITTTQLGQLAGVQYYKVDLDDTASMKKRLSAVKTEKNVTFTDMFTVSETMLEFDDKMEQFYEPQVQKEDVISLVVEGTCYYDVEPEDDSWIRVQVEKGDLIVIPKGLSHRFTTTPQNFVKIQRFFSRKVEGNQG", "not soluble"],
  ["MKKALTTRHPPIDVYCICREVTEVMEKLHAADAETIPLASNIQMVNMVNNYVIMSYGLLHDDYEYGAITESCRKDVLLLLRELFPRKIYLWEN", "soluble"],
  ["MSLKRVVIIGMGFGGIRAARVLAGKGLDVVLVDRNNYHLFQPLLYQVGTAGLEQESIAYPVRAMAREWRGTRFHLAEVAGVDFPAREVVTGNGRIPYDYLIIGAGSVTNYFGLESVERHAFDLKELVDGERLRNHILTAFERAVVEPDPAKRRALMTFVIVGGGPTGVEFAGALMELVRYVLAKDYPELSVQAARVVLVEAFDRLLAAMPQELQVYTLEKLRAMGVEVLFNARVEGHHHHHH", "not soluble"],
  ["MGGIFSKKEKSPKSAPVSDQDNAILALKTQRDKMKQMIKRKENCLEKERQLAKQLIKDGRKDRALLLLKKKRYQEKIIDQTLNHLSKIEQMVNDLEFAEVQQRVTDGLRQGNEALKKMNQLFDIDEIDRIMEETKEAAEYQEEISNMLSGQLSNTDVSDVEKELEDLLAAEWGTVQLPEAPSHELPEAERERQKEKEKPRREKIALEA", "not soluble"],
  ["MGSDKIHHHHHHMGAVVVKDLRKRIGKKEILKGISFEIEEGEIFGLIGPNGAGKTTTLRIISTLIKPSSGIVTVFGKNVVEEPHEVRKLISYLPEEAGAYRNMQGIEYLRFVAGFYASSSSEIEEMVERATEIAGLGEKIKDRVSTYSKGMVRKLLIARALMVNPRLAILDEPTSGLDVLNAREVRKILKQASQEGLTILVSSHNMLEVEFLCDRIALIHNGTIVETGTVEELKERYKAQNIEEVFEEVVKCSENF", "soluble"],
  ["MDGALLIDKPKGITSTEVVERVKEKLKARKAGHTGTLDPIATGLLIILINKATRFSQFFIGMPKTYRFTVKFGAETDTYDAQGKVVETYEGELNCDKLKEVLNEFRGEILQTPPPFSAKKIKGRRAYELARKGKKVELKPVKITVYSLELLSCNPREKEAEFLAEISSGGYVRSLAYDIGKKLGIGGYMKELRRLKIDEISVEEAVSLEEFLSSENPEEYVLPVDTLFRVIPEVRLNTFEAGKILQGKRILIKNYDYEGLVKIYEDSKFIGIGELKGGVLSPKRLLV", "soluble"]
]}

In the following, a different sequence is considered.
Q) Bench note: what soluble on expression in E. coli did SLFGYHDVEDFQAEIGEYKIKTERIGPFYSYVRENGERKEKNLSVETGRIIVNPVEPVNLPKEITNFLQIKFSKPFLAEPKSAVEVYATFPVEIAVFIAAKKNVGLVDVFSLQKPKYTLYGNPRAGIICRYWESELYSEIPQVDKYREGVIKLRIVNSDDEWVEVSNAVFDVYGMKIYYNEEMVCSSASVNIVSPKVAETRFIEQPLREKMKKALELYTARRIAVTSLKFVMEWGL show?
A) not soluble

###

- Assay Details: soluble on expression in E. coli; label from the status in PepcDB or PDB records
Attribute Measured: soluble on expression in E. coli

{"columns": ["Sequence Code", "Attribute Measured", "Observed Value"],
 "data": [
  ["AEKRIGLMLFGKGNIGSRWLELFAREQTTLSARTGFEFILAGVVDSKRSLLNYDGLDASRALAFFNDEAVEQDEESLFLWMRAHPYDDLVVLDVTASEQLADQYLDFASHGFHVISANKLAGASSSDKYRQIHDAFEKTGRHWLYNATVGAGLPVNHTVRDLIDSGDTILGLSGIFSGTLSWLFLQ", "soluble on expression in E. coli", "not soluble"],
  ["LLERLPVPVLAVQHDGVVVYSNRAFERMLDYPPNEVGNHLIGDLMQTASPGPSAVAELRESAGKLVALTHRDGSTVRAFVSESVLERHDDPVTLVCFHDVT", "soluble on expression in E. coli", "not soluble"],
  ["MERGEIWLVSLDPTAGHEQQGTRPVLIVTPAAFNRVTRLPVVVPVTSGGNFARTAGFAVSLDGVGIRTTGVVRCDQPRTIDMKARGGKRLERVPETIMNEVLGRLSTILT", "soluble on expression in E. coli", "soluble"],
  ["MAHHHHHHMAPSELHKLSYWEEVYQGEKENYEEANIQPEEWFEENCDKIINWMSNHFSEEEKKEQVAILDVGCGNGLFLHKLHQRGFGNLCGFDFSASAIELAKKLFVGCGGEGEEDSRINRGEEPTDVYVQVLDIYNIEDEIKENSKLKKKYKLINDKGTFDIFFMNDKAQEYFKHVSFFFQVDTIFCLTSCNACKEELLSIVNHFNETNGKFQLTLFDEIRYESITFGGVKGQIITTLIFACS", "soluble on expression in E. coli", "soluble"]
]}

Where do the numbers come from? From the DeepSol protein solubility set.
